# System: rat chronic carcinogenicity bioassay, TD50
# ASSAY: DSSTox (CPDBAS) Carcinogenic Potency Database Summary Rat Bioassay Results
# CONDITIONS: TD50_Rat_Note: TD50 is harmonic mean of more than one positive test; TargetSites_Rat_Female: all tumor bearing animals; active compounds read low
Listing of entries alongside the reported Potency.
MEASURE: Potency

CN(N=O)C(=O)c1ccccc1: 3.23 mg/kg/day
O=NN1CC(=O)NC1=O: 43.8 mg/kg/day

* * *

# Test system: rat chronic carcinogenicity bioassay, TD50
# ASSAY: DSSTox (CPDBAS) Carcinogenic Potency Database Summary Rat Bioassay Results
# CONDITIONS: TD50_Rat_Note: positive test results only by intraperitoneal or intravenous injection; active compounds read low
MEASURE: Potency

O=C1C=C(N2CC2)C(=O)C(N2CC2)=C1N1CC1: 0.00504 mg/kg/day
CNNCc1ccc(C(=O)NC(C)C)cc1: 4.01 mg/kg/day
C/C=C1/C[C@@H](C)[C@@](C)(O)C(=O)OC/C2=C/CN(C)CC[C@@H](OC1=O)C2=O: 1.7 mg/kg/day
O[C@H]([C@H](O)[C@@H](O)CBr)[C@H](O)CBr: 8.37 mg/kg/day
O=NN1CCCN(N=O)C1: 0.166 mg/kg/day
C/C=C(\C)C(=O)O[C@@H]1CCN2CC=C(COC(=O)C(O)(C(C)C)C(C)O)[C@H]12 (stereo partly specified): 1.91 mg/kg/day
